- Experimental target: T1, human CD4 on cells (SKW3 cells; human PBMCs) (human, UniProt P01730 26-458)
- T1 construct: whole, on cells; SKW3 CD4 knockout cells served as the negative cell line; also called hCD4
- Measurement protocol: FACS binning on SKW3 cells pre-incubated with supernatant; competitor OKT4a read with anti-human A647 secondary; background 5000, max binding 35000
So basically: SKW3 FACS Binning OKT4a anti-hu A647 Secondary at 7000 or higher? That is criterion met. Lower than 7000? That is criterion not met.

Binder | Class name
75110_06D16A (antibody, V domains shown, Tested as non-clonal AlivaMab Mouse Kappa hybridoma supernatant: human variable domains and human kappa, mouse Fc (detected with anti-mouse Fc)) VH: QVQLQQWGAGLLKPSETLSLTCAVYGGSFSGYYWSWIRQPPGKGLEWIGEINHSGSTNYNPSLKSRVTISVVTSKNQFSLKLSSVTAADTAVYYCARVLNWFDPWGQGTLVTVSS VL: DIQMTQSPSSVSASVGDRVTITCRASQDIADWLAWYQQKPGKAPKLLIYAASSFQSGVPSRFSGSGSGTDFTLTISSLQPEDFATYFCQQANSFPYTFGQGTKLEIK | criterion not met
75110_13C13A (antibody, IgG1, V domains shown, Tested as non-clonal AlivaMab Mouse Kappa hybridoma supernatant: human variable domains and human kappa, mouse Fc) VH: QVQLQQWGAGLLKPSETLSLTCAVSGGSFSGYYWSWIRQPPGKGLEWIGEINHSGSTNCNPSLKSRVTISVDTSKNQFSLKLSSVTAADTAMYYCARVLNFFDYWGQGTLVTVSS VL: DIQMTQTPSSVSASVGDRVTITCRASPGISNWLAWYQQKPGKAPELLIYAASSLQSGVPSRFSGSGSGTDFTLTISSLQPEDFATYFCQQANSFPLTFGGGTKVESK | criterion not met
75110_01G11A (antibody, IgG1, V domains shown, Tested as non-clonal AlivaMab Mouse Kappa hybridoma supernatant: human variable domains and human kappa, mouse Fc) VH: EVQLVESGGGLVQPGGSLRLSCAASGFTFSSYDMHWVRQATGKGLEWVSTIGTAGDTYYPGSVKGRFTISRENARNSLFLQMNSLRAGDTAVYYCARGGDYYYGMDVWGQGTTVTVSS VL: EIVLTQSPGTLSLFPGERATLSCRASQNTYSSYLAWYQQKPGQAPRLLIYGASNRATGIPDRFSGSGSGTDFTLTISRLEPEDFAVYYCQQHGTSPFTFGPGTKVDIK | criterion met
75110_12K21A (antibody, V domains shown, Tested as non-clonal AlivaMab Mouse Kappa hybridoma supernatant: human variable domains and human kappa, mouse Fc) VH: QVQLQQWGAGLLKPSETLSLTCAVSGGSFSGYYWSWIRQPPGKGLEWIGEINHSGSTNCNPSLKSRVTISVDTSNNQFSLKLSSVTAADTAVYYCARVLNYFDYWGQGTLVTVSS VL: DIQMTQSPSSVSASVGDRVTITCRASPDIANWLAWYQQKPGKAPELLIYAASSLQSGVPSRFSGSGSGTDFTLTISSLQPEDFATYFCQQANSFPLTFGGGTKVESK | criterion met
